Reference source: paper PMC8063472

assay.text: Pharmacokinetic study in rats (plasma LC-MS/MS) after iv or oral VOC, oral VOC-P188 or oral VOC-β-CD
Format: in vivo, Sprague Dawley rats
condition.parameters: male, Sprague-Dawley, rat, plasma, iv, 30 mg/kg, VOC iv 30 mg/kg, rat plasma, n = 6; read-out: MRT0-t
Protocol: The intravenous injection solution was prepared by dissolving 0.15 g of VOC in 25 ml water containing 3 ml 10% Tween-80 as solubilizer. […] The plasma SA, NBP, NOL, ZL and BP concentrations were evaluated using the equation from the standard curves that were run with each batch of samples. The plasma concentration-time data were analyzed with the Drug and Statistics 2.0 software package to determine the pharmacokinetic parameters. […]
Each entry below carries its reported MRT last.
Put down the number, then write its unit next to it.

[
  {
    "molecule": "CCC/C=C1\\OC(=O)c2ccccc21 [BP]",
    "endpoint.result": "76.8 min"
  },
  {
    "molecule": "CCCCC1OC(=O)C2=C1CCC=C2 (centres unmarked) [SA, senkyunolide A]",
    "endpoint.result": "43.2 min"
  },
  {
    "molecule": "CCC/C=C1\\OC(=O)C2=C1CCC=C2 [ZL, Z-ligustilide]",
    "endpoint.result": "27 min"
  },
  {
    "molecule": "CCCC[C@@H]1OC(=O)c2ccccc21 [NBP, N-butylphthalide, reference compound]",
    "endpoint.result": "32.4 min"
  }
]

Next molecule, MRT last to be filled in.
Task: What does the record list as MRT last for CCCC[C@@H]1OC(=O)C2=CCCC[C@H]21 [NOL, Neocnidilide] ?
Result: 47.4 min

====

assay.text: Pharmacokinetic study in rats (plasma LC-MS/MS) after iv or oral VOC, oral VOC-P188 or oral VOC-β-CD
Assay type: in vivo, Sprague Dawley rats
condition.parameters: male, Sprague-Dawley, rat, plasma, po, VOC-P188 solid dispersion po, rat plasma, n = 6
measured.endpoint: log10 AUC(0-t) (log10 of the value in ng·h/mL)
Please interpret these as log10 of AUC(0-t) where AUC(0-t) is in ng·h/mL.

[
  {
    "compound": "CCCCC1OC(=O)C2=C1CCC=C2 (centres unmarked) [SA, senkyunolide A]",
    "log10 AUC(0-t)": 3.37
  },
  {
    "compound": "CCCC[C@@H]1OC(=O)c2ccccc21 [NBP, N-butylphthalide, reference compound]",
    "log10 AUC(0-t)": 1.86
  },
  {
    "compound": "CCCC[C@@H]1OC(=O)C2=CCCC[C@H]21 [NOL, Neocnidilide]",
    "log10 AUC(0-t)": 3.06
  },
  {
    "compound": "CCC/C=C1\\OC(=O)c2ccccc21",
    "log10 AUC(0-t)": 2.40
  }
]

Task: What does the record list as log10 AUC(0-t) for CCC/C=C1\OC(=O)C2=C1CCC=C2 [ZL, Z-ligustilide] ?
Result: 2.90

====

assay.text: Pharmacokinetic study in rats (plasma LC-MS/MS) after iv or oral VOC, oral VOC-P188 or oral VOC-β-CD
Format: in vivo, Sprague Dawley rats
condition.parameters: VOC po 120 mg/kg, rat plasma, n = 6
measured.endpoint: t1/2α (min)
// return numeric value only (unit: min, not printed)

[
  {
    "compound": "CCCC[C@@H]1OC(=O)c2ccccc21 [NBP, N-butylphthalide, reference compound]",
    "endpoint.result": 15.6
  },
  {
    "compound": "CCCCC1OC(=O)C2=C1CCC=C2 (centres unmarked) [SA, senkyunolide A]",
    "endpoint.result": 78.6
  },
  {
    "compound": "CCC/C=C1\\OC(=O)c2ccccc21",
    "endpoint.result": 82.8
  }
]

Task: Which t1/2α reading was recorded for the compound CCC/C=C1\OC(=O)C2=C1CCC=C2 [ZL, Z-ligustilide] ?
Result: 49.2

Task: Input CCCC[C@@H]1OC(=O)C2=CCCC[C@H]21 [NOL, Neocnidilide]
Result: 27.6
